# PROTOCOL_SUMMARY: yeast display, Sf9 membrane polyspecificity reagent, FACS + sequencing; frameworks hold sequencing errors
METRIC: polyreactivity (PSR sort gate)

As a guide, the following entries are already answered.
QVQLVESGGGLVQAGGSLRLSCAASGRTFRIYAMGWYRQAPGKERELVAAISRSSTSTYYADSVKGRFTISRDNAKNTVYLQMNSLKPEDTAVYYCAAVVTVQYSQPYDHWGQGTQVTVSS
high polyreactivity
QVQLVESGGGLVQAGGSLRLSCASSGRTFYRNAMGWYRQAPGKERELVAAIRGSGSSTYYADSVKGRFTISRDNAKNSVYLQMKSLKQEDTAVYYCAADYINYNGYARYYFWGQGTQVTVSS
high polyreactivity
QVQLVESGGGLVQAGGSLRLSCAASGIIFAYNAMGWYRQAPGKERELVAAISSGGRTNYADSVKGRFTISRDNAKNTVYLQMNSLKPEDTAVYYCAARPRYYWLGLKIYGYDYWGHGTQVTVSS
high polyreactivity
QVQLVESGGGLVQAGGSLRLSSAASGGIFRYYAMGLYRQAPGKERELVAAITSSGTSTYYADSVKGRFTISRDYAKNTVYLQMNSLKPEDTAVYYCARVVRPTDGDYWGLGTQVTVSS
high polyreactivity
QVQLVESGGGLVQAGGSLRLTCAASGSIFEPYTKGWYRQAPAKERELVAAITGSGGSTFYADSVKARFTISRDNAKNTVYLQMNSLKPEDTAVYYCNANAYPYTDVDYWGQGTQVTVSS
low polyreactivity

# get_value(readout='polyreactivity (PSR sort gate)', item= "QVHLVESGGGLVQAGGSLRLSCAASGRTFSRYAMGWYRQAPGKERELVATITRGGSTNYADSVKGRFTISRDNAKNTVYLQMNSLKPEDTAVYYCNAASFRYQGTLNHFYYWGQGTQVTVSS" )
low polyreactivity

What do you have for "KVQLVESGGGIVQAGGSLRLSCAASGSTFVRNAMGWYRQAPGKERELVAGITFGGGSTYYADSVKGRFTISRDNAKNTVYLQMNSLKAEDTAVYFCAKRDYSPWPAAGYPYDYDYWGQGTQVTVSS" ?
low polyreactivity

What do you have for "QVQHVESGGGLVQAGGSLRLSCAASGPTYKRYAMGWYRQAPGKERELVAAIRQRGGSTYYADSVKGRFTISRDNAKNTVYLQMISLKPEDTAVYYWAKRYVSNSQYEYWGQGTQVTVSS" ?
high polyreactivity

What do you have for "QVQLVESGGGLVQAGGSLRLSCAASGSTFGEYAMGWYRQAPGKERELVAAITSSGGSTYYADSVKGRFTISRDNAKNTVYLQMNSLKPEDTAVYYCAADWDYPYDEAVSKDIDYDYWGQGTQVTVSS" ?
low polyreactivity

What do you have for "QVQLVESGGGLVQAGGSLRLSCAASGSTFRIYAMGLYRQAPGKERELVAAIRRSGGSTYYADSVKGRFTISRDNAKNTVYLQMNSLKPEDTAVYYCAADLYYQAPGYQDRYRHSRYEYWGQGTQVTVSS" ?
high polyreactivity

What do you have for "QVQLVESGGGLVQAGGSLRLSCAASGSIFINNMGWYRQAPGKERELVAAISNSGGRTYYADSVKGRFTISRDNAKNTVYLQMNSLKPEDTAVYYCAKKSNRLPYGYWGQGTQVTVSS" ?
high polyreactivity
